Where do these numbers come from? They come from patent US11459306B2.

target desc: UniProt P42336
Sequence (P42336 whole entry): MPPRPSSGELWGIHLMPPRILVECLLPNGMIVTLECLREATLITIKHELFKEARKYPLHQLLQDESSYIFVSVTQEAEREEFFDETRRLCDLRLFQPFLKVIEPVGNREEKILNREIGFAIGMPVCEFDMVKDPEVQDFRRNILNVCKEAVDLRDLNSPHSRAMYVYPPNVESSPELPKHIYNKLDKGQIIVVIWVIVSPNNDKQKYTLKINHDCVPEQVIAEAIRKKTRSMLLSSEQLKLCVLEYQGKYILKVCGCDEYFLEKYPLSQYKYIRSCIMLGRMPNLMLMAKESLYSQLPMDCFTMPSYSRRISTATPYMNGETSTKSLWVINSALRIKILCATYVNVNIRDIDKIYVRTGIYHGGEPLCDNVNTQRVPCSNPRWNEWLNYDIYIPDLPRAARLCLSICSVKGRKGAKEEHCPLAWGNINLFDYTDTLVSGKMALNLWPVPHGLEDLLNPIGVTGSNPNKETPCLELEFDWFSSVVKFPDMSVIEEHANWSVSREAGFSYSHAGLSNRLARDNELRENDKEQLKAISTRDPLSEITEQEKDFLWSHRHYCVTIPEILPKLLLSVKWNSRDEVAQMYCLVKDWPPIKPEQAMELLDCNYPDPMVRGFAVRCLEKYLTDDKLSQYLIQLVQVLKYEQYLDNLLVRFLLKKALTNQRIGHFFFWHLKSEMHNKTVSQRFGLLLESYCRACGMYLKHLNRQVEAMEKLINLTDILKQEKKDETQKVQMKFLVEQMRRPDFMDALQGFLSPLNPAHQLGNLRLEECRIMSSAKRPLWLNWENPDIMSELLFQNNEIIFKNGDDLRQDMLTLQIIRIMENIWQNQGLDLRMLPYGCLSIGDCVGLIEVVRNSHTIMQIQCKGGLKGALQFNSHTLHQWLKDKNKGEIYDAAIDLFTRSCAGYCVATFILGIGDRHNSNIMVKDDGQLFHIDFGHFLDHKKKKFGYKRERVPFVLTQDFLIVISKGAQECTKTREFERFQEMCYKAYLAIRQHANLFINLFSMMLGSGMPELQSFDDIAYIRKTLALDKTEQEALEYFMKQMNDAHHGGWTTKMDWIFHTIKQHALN
pKd: −log10 of the molar value.

line notation	pKd
Cc1nc(N)nc(N[C@@H](C)c2cc3cccc(Cl)c3c(=O)n2-c2ccccc2)c1C#N	8.66

----------
Kd values by entry
target desc: PIK3CG (Homo sapiens)
Construct: purchased DiscoverX (KINOMEscan); host or cells: E. coli BL21-derived host (T7 phage) or HEK-293
Sequence (P48736 whole entry): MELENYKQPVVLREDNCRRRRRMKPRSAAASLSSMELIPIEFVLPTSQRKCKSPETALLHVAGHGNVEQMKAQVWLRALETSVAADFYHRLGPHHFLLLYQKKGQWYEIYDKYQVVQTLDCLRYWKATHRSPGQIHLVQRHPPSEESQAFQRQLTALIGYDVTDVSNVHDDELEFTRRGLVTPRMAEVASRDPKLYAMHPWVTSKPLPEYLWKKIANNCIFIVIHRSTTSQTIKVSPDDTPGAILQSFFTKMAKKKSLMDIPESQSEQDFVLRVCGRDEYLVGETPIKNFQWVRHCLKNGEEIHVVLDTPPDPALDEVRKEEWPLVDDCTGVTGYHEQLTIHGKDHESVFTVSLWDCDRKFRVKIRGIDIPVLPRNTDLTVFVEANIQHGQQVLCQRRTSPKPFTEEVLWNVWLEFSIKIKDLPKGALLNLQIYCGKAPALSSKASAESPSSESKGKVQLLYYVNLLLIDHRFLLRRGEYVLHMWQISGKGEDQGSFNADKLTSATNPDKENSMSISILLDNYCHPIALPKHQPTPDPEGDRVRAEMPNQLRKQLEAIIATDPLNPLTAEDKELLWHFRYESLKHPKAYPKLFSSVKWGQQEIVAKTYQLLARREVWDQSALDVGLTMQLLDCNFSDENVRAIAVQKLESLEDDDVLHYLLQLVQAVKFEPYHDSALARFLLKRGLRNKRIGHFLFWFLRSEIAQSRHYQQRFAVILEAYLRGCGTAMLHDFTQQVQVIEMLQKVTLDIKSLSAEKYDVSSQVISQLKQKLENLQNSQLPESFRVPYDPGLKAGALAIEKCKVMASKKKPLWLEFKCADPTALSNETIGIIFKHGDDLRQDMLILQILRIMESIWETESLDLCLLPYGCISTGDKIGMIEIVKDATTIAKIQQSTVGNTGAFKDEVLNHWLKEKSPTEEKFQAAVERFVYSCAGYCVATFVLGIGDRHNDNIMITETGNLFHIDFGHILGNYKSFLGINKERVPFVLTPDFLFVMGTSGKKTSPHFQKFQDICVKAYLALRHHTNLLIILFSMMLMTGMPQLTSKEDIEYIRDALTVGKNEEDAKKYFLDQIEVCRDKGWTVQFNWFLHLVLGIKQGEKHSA
experimental details: KINOMEscan competition binding assay (DiscoverX)
cond: DiscoveRx gene symbol PIK3CG (b251 prints: PI3Kδ)
measured endpoint: Kd (nM)

line notation	unit info	measured result
C[C@H](Nc1nc(N)nc(N)c1C#N)c1cc2cccc(Cl)c2c(=O)n1-c1cccc(F)c1	nM	0.27
[2H]c1c([2H])c([2H])c(-n2c([C@H](C)Nc3nc(N)nc(N)c3C#N)cc3cccc(Cl)c3c2=O)c([2H])c1[2H]	nM	0.17
Cc1ccccc1-n1c([C@H](C)Nc2nc(N)nc(C)c2C#N)nc2cccc(C)c2c1=O	nM	0.62
Cc1ccccc1-n1c([C@H](C)Nc2nc(N)nc(N)c2C#N)nc2cccc(C)c2c1=O	nM	0.2
Cc1nc(N)nc(N[C@@H](C)c2cc3cccc(Cl)c3c(=O)n2-c2ccccc2)c1C#N	nM	0.089
